Data credit: PubChem BioAssay (NCATS)

Tested on: Zika virus NS2B-NS3 protease (unlinked complex)
TEST_DESCRIPTION: Primary screen GU Rhodamine qHTS for Zika virus inhibitors: Unlinked NS2B-NS3 protease assay (AID 1347159); note: % is set by controls: 0 for no effect and ±100 for the full control effect; nearly all actives have a fitted effect of over 60% in size
CONDITION_NOTES: Recombinant ZIKV NS2B-NS3 protease, Rhodamine110 substrate fluorescence; series mostly up to 107 µM
Inconclusive results are not listed. Active and inactive are the calls of the source. Calls come from the whole dose curve; as a rule, active = well fitted inhibition curve with a large enough effect; inconclusive = small, poorly fitted or top-dose-only effect; inactive = no such curve, though single readings can be large or run the other way.
PROPERTY: outcome

Known results for compounds:
Report outcome, nothing else, for this compound: CC(O)C(C)n1ncn(-c2ccc(N3CCN(c4ccc(OCC5COC(Cn6cncn6)(c6ccc(Cl)cc6Cl)O5)cc4)CC3)cc2)c1=O (stereo not given)
inactive

Fill in reported outcome for this entry: `Cc1cc(C)c(-n2cc(C)c3c(Cl)nc(C)nc32)c(C)c1`
inactive

Could you please provide reported outcome for CC(C)(C)Oc1ccc(OCC2Cc3ccccc3CN2C(=O)c2cccc3ccccc23)cc1 (stereo not given) ? Thanks!
inactive

Check the records and state outcome for Cn1cc(-c2cnn3c(N)c(Br)c(C4CCCNC4)nc23)cn1 (stereo not given)
inactive

More entries:
Answer with the recorded outcome of `O=C(c1cc(Cc2n[nH]c(=O)c3ccccc23)ccc1F)N1CCCNCC1` only.
inactive

----------
System: Zika virus NS2B-NS3 protease (unlinked complex)
TEST_DESCRIPTION: Primary screen GU Rhodamine qHTS for Zika virus inhibitors: Unlinked NS2B-NS3 protease assay (AID 1347159); note: % is set by controls: 0 for no effect and ±100 for the full control effect; nearly all actives have a fitted effect of over 60% in size
CONDITION_NOTES: Recombinant ZIKV NS2B-NS3 protease, Rhodamine110 substrate fluorescence; series mostly up to 107 µM
Inconclusive results are not listed. Active and inactive are the calls of the source. Calls follow the shape of the dose curve; as a rule, active = well fitted inhibition curve with a large enough effect; inconclusive = small, poorly fitted or top-dose-only effect; inactive = no such curve, though single readings can be large or run the other way.
PROPERTY: outcome

Note down outcome recorded for `COc1cc(C(=O)NCC2(N(C)C)CCCC2)cc(OC)c1OCc1ccccc1`
inactive

State its outcome: `Cc1ccc(O)cc1Nc1ccnc(Nc2cccc(C(N)=O)c2)n1`
inactive

Supply reported outcome belonging to this molecule: CC1(C)CC[C@]23CO[C@@]4(CCC5[C@@]6(C)CC[C@H](O[C@@H]7OC[C@H](O[C@@H]8O[C@H](CO)[C@@H](O)[C@H](O)[C@H]8O[C@@H]8OC[C@@H](O)[C@H](O)[C@H]8O)[C@H](O)[C@H]7O)[C@@](C)(CO)C6CC[C@@]5(C)[C@]4(C)CC2=O)[C@@H]3C1 (stereo partly drawn)
inactive

----------
Please provide measured max response for the entries that follow.
Tested on: HaCat
TEST_DESCRIPTION: Cytotoxic Profiling of Annotated Libraries Using Quantitative High-Throughput Screening (AID 1296008); note: % is set by controls: 0 for no effect and ±100 for the full control effect; nearly all actives have a fitted effect of over 60% in size
CONDITION_NOTES: Five cell lines viability, CellTiter-Glo ATP luminescence, 48-72 h; stronger effect = lower value
Results filed as inconclusive are left out. Activity calls are given as the source filed them. Calls follow the shape of the dose curve; as a rule, active = well fitted inhibition curve with a large enough effect; inconclusive = small, poorly fitted or top-dose-only effect; inactive = flat fitted curve, though single readings scatter.

These solved cases illustrate the format of a correct answer.
Complete the entry with the larger response for `O=C(Nc1ccccc1)N1CCC(Cc2cnc3ccccc3c2)CC1`
-1.9% (inactive)

State its max response for this molecule: `CC(=O)NCc1cccc(OC[C@@H](O)CNCCc2ccc(NS(=O)(=O)c3ccccc3)cc2)c1`
-3.13% (inactive)

Identify measured max response associated with `COC(=O)c1ccc(N2CCN(C)CC2)c(NC(=O)c2cccc(OC)c2)c1`
-1.79% (inactive)

Look up and report measured max response for this entry: `O=C(c1ccc(Cl)cc1)N1CCN(c2ccnc3cc(Cl)ccc23)CC1`
-18.2% (inactive)

Query max response for `N#CSc1cc(SC#N)c(N)nc1N`
-25% (inactive)

Specify measured max response for CC(=O)NC(C)c1cnc(-c2cnc(Oc3ccc(OC(C)C)cc3)s2)s1 (stereo unspecified) .
2.34% (inactive)

For the molecule `C=CC(=O)Nc1cc(-n2c(=O)ccc3cnc4ccc(-c5ccc(NS(C)(=O)=O)cc5)cc4c32)ccc1C` , give its measured max response value.
-9.43% (inactive)

Could you please provide reported max response for `O=C(Nc1ccc(Cl)cc1)c1ccccc1NCc1ccncc1` ? Thanks!
-24.7% (inactive)

Identify the reported max response for the following entry. CC(C)/C=C1\NC(=O)C(C(C)C)n2c1nc1ccccc1c2=O (stereo unspecified)
-9.75% (inactive)

Read the entry `COc1ccc(S(=O)(=O)Nc2c(C)cc(C)cc2C)cc1` and write its reported max response.
-0.296% (inactive)

Let us examine a further case.
Annotate the molecule `COc1ccc2[nH]c(=O)c3c(c2c1)OC(C)(C)C=C3` with its measured max response.
-2% (inactive)
